Every entry's value here was drawn from patent US20220177583A1.

Overview of reported FACS signal across a group of binders:
Molecular target: T1, human CLDN6, endogenously expressed on cancer cell lines (human, UniProt P56747 1-220)
T1 construct: also called Endogenous CLDN6+; CLDN6 on ARK2, OVCA429, UMUC4 cells
T1 sequence: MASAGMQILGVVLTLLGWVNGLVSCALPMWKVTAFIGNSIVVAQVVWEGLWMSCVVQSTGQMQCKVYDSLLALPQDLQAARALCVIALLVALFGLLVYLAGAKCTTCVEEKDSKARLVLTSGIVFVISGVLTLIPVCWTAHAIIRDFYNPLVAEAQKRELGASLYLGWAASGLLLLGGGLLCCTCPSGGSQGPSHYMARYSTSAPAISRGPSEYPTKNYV
Experiment: FACS, OVCA429 cells, 1.5 ug Ab
// return just the number, without any unit appended

Binder: AB1-6 (antibody, V domains shown, Humanized; also called humanized AB 1-6) VH: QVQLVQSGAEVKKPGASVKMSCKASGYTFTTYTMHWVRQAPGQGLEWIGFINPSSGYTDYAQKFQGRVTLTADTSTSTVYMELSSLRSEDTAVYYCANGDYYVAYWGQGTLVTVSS VL: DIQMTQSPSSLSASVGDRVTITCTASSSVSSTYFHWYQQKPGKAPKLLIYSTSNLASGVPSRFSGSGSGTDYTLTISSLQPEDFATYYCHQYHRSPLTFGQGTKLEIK
FACS signal: 29900

Binder: AB3-3 (antibody, V domains shown, Humanized; also called humanized AB 3-3) VH: EVQLLESGGGLVQPGGSMRLSCAASGFTFSNYWMNWVRQAPGKGLEWVAQIRLKSDNYATHYADSVKGRFTISRDDSKNTVYLQMNSLRAEDTGVYYCNDGPPSGCWGQGTLLTVSS VL: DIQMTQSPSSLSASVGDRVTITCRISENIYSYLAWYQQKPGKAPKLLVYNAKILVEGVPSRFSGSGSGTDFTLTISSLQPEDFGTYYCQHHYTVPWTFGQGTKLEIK
FACS signal: 88700

Task item: Quick check: FACS signal of AB3-5 (antibody, V domains shown, Humanized; also called humanized AB 3-5) VH: EVQLLESGGGLVQPGGSMRLSCAASGFTFSNYWMNWVRQAPGKGLEWVAQIRLKSDNYATHYADSVKGRFTISRDDSKNTVYLQMNSLRAEDTGVYYCNDGPPSGYWGQGTLLTVSS VL: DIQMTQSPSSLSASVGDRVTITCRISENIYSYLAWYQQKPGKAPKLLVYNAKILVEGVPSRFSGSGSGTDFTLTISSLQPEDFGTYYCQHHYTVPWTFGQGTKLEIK ?
Reply: 2950
